assay: compound effects on multiple myeloma cell viability – MM1S, calcein-AM fluorescence, 48 h, basal, profiling panel (AID 1165); conditions: higher = more signal; also: test concentration not given here
For each of the molecules below, state its z-score.
One number for each entry.

Req: Any idea what z-score was measured for C[C@]1(C(=O)O)c2ccccc2C(=O)N(Cc2cc(F)cc(C(F)(F)F)c2)[C@H]1c1ccc(CO)cc1 ?
Resp: 0.471

Would you mind giving z-score for every molecule in the list below?
1. [N-]=[N+]=NCc1ccccc1[C@@H]1OC(c2ccc(OCCCO)cc2)=N[C@]1(Cc1ccccc1N=[N+]=[N-])C(=O)NCC(O)CO (some centres not stated)
2. CCCNC(=O)[C@@]1(c2ccc([N+](=O)[O-])cc2)CC(=O)N(C(C)C)[C@@H]1c1ccc(CO)cc1
3. CC(=O)NCCCC[C@@H]1NC(=O)[C@H]2C[C@@H](C(=O)NCCCCCCNC(=O)CS)[C@@H](c3cccc(OCCO)c3)N2C1=O
4. C=CCNC(=O)[C@H]1[C@@H]2C(=O)O[C@@H](c3ccccc3)[C@@H](c3ccccc3)N2[C@@H](c2ccccc2OCCO)[C@]12C(=O)N(C(=O)OCCOC)c1ccc(C#Cc3ccc(OC)cc3)cc12
5. CC(C)=CCCC=C(C)C(O)C1C=CC2C(=O)N(c3ccccc3)C(=O)C2N1Nc1ccc(C#N)cc1 (configuration not stated)

Resp:
[-1.78, 0.167, -0.504, -1.05, -1.65]

Req: Any idea what z-score was measured for N#Cc1ccc(C(O)C2C=CC3C(=O)NC(=O)C3N2Nc2ccc(Cl)cc2Cl)cc1 (configuration not stated) ?
Resp: -0.399
